Origin of values: patent US20260191981A1

As shown below, each of these binders has a reported pKd value.
Target: T1, human transferrin receptor 1 (hTfR1) (human, UniProt P02786 89-760, limits assumed)
T1 construct: The selections used the biotinylated ECD domain of hTfR1
T1 sequence (P02786 89-760 limits assumed): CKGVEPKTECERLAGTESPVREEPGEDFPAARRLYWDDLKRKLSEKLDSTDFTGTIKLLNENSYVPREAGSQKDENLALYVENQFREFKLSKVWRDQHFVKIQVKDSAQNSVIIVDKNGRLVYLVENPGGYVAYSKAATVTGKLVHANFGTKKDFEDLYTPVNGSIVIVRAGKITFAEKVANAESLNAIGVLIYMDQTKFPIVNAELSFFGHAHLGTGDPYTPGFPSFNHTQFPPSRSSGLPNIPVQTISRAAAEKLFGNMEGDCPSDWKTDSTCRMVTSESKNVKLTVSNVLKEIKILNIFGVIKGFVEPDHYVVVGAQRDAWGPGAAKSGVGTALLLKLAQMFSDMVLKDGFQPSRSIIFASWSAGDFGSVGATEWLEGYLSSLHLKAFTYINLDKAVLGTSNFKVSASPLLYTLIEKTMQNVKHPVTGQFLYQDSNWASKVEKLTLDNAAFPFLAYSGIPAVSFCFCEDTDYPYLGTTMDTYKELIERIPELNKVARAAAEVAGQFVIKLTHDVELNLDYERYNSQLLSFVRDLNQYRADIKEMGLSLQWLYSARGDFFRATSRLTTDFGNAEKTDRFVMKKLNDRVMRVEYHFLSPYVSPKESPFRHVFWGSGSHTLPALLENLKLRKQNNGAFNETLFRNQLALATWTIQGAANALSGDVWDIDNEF
Assay: competition phage ELISA (phage-displayed Fab)
// field semantics: pKd = negative decimal log of concentration (mol/L)

Fab0063 (Fab, V domains shown) VH: EVQLVESGGGLVQPGGSLRLSCATSGYTFTSYWMHWVRQAPGKGLEWVAEINPTNGRVNYIEKFKSRITLSVDKSKSTVYLQMNSLRAEDTAVYYCARGTRAYHYWGQGTLVTVSS VL: DIQLTQSPSSLSASVGDRVTITCRASDGLYSNLAWYQQKPGKAPKLLIYDATRLASGVPSRFSGSGSGTDYTLTISSLQPEDFATYYCQHFWGTPLTFGQGTKVEIKR ... 9.32

# query: pKd of entry Fab0062 (Fab, V domains shown) VH: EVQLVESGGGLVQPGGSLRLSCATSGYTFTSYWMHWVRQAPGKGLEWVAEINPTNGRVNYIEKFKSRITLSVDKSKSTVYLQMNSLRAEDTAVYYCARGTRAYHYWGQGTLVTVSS VL: DIQLTQSPSSLSASVGDRVTITCRASDGLYSNLAWYQQKPGKAPKLLIYDAFNLASGVPSRFSGSGSGTDYTLTISSLQPEDFATYYCQHFWGTPLTFGQGTKVEIKR
9.19

# query: pKd of entry Fab0073 (Fab, V domains shown) VH: EVQLVESGGGLVQPGGSLRLSCATSGYTFKSYWMHWVRQAPGKGLEWVAEINPTNGRTNYIEKFKSRITLSVDKSKSTVYLQMNSLRAEDTAVYYCARGTRAYHYWGQGTLVTVSS VL: DIQLTQSPSSLSASVGDRVTITCRASDNLYRNLAWYQQKPGKAPKLLIYDATKLASGVPSRFSGSGSGTDYTLTISSLQPEDFATYYCQHFWGTPLTFGQGTKVEIKR
9.54

# query: pKd of entry Fab0002 (Fab, V domains shown) VH: EVQLVQSGAEVKKPGASVKVSCKASGYTFTSYWMHWVRQAPGQRLEWIGEINPTNGRTNYIEKFKSRATLTVDKSASTAYMELSSLRSEDTAVYYCARGTRAYHYWGQGTMVTVSS VL: DIQMTQSPSSLSASVGDRVTITCRASDNLYSNLAWYQQKPGKSPKLLVYDATNLADGVPSRFSGSGSGTDYTLTISSLQPEDFATYYCQHFWGTPLTFGQGTKVEIKR
8.55

# query: pKd of entry Fab0068 (Fab, V domains shown) VH: EVQLVESGGGLVQPGGSLRLSCATSGYTFTSYWVHWVRQAPGKGLEWVAEINPTNGRVNYIEKFKSRITLSVDKSKSTVYLQMNSLRAEDTAVYYCARGTRAYHYWGQGTLVTVSS VL: DIQLTQSPSSLSASVGDRVTITCRASDGLYSNLAWYQQKPGKAPKLLIYDATKLASGVPSRFSGSGSGTDYTLTISSLQPEDFATYYCQHFWGTPLTFGQGTKVEIKR
9.37
